The measurements presented in this section are drawn from PubChem BioAssay AID1159580.

method: chemical genetic growth profiling, strain panel (AID 1159580);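 note: tested at 20 µM; growth read once vehicle control cultures reached saturation at 30 °C; lower values mean less growth of the strain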
measurement context: S. cerevisiae deletion strains, growth OD, locus YNR030W, strain Alg12, stronger effect = lower value
The campaign covered roughly 5,500 compounds. About 2,000 (36%) were called active. Roughly 18% stayed inconclusive and do not appear here. The list shows a part of the results.
For each record, check the reported normalized growth: if it is below 0.9 write met, else write not met.

# structure as smiles, category
measured = [
    ("CCOC(=O)c1sc(-c2ccc(C)cc2)nc1O", "met"),
    ("O=C1ON=C(c2ccccc2)/C1=C/c1ccc(Cl)cc1", "met"),
    ("O=C1CC(CSc2ccc(Cl)cc2)=NN1", "met"),
]

Q: Here's an entry: "CC(C)(C)c1ccc(-c2n[nH]c(=S)n2-c2cccc(C(F)(F)F)c2)cc1" . Is its normalized growth below 0.9?
A: not met

Q: Here's an entry: "Cc1csc2ccc(Cl)cc12" . Is its normalized growth below 0.9?
A: not met
